# STUDY TARGET: T1, Recombinant MBP-mutCALR Type 1 fusion protein (human)
# T1 construct: custom made at Cepter; also called recombinant mutCALR protein
# METHOD: SPR, IgG captured, 1:1 fit, Exp. 1

- BINDER: "anti-mutCALR antibody clone 27 (antibody, human IgG1, lambda, V domains shown, human IgG1) VH: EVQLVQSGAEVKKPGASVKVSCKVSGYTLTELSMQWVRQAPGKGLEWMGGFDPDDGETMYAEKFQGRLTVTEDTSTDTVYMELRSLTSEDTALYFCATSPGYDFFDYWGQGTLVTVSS VL: SYVLTQPPSVSVAPGQTARITCGGNNIGIKSVHWYQQKPGQAPVLVVYDDRDRPSGIPERFSGSNSGNTATLTINRVEAGDEADYYCQVWDSSNDLLIFGGGTKLTVLG"
  UNIT SPEC: "s⁻¹"
  koff: 0.00366
- BINDER: "anti-mutCALR antibody clone 11 (antibody, human IgG1, lambda, V domains shown, human IgG1) VH: EVRLVQSGAEVKKPGASVKVSCKVSGYTLTELSMQWVRQAPGKGLEWMGGFDPDDGETMYAEKFQGRLTVTEDTSTDTVYMELRSLTSEDTALYFCATSPGYDFFDYWGQGTLVTVSS VL: QSALTQPRSVSGSPGQSVTISCTGTSSDVGGYNYVSWYQQHPGKAPKLMIYDVSKRPSGVPDRFSGSNSGNTATLTINRVEAGDEADYYCQVWDSSNDLLIFGGGTKLTVLG"
  UNIT SPEC: "s⁻¹"
  koff: 0.00524
